A collection of molecules and their measured IC50
- system tested: EGFR V3 (Homo sapiens, UniProt P00533, DELINS30-297G)
- Construct: expressed in transfected cells; host or cells: BaF3 (murine pro-B), retroviral pMXs-IRES-Blasticidin
- Sequence (P00533 with tags, fused parts or gaps DELINS30-297G): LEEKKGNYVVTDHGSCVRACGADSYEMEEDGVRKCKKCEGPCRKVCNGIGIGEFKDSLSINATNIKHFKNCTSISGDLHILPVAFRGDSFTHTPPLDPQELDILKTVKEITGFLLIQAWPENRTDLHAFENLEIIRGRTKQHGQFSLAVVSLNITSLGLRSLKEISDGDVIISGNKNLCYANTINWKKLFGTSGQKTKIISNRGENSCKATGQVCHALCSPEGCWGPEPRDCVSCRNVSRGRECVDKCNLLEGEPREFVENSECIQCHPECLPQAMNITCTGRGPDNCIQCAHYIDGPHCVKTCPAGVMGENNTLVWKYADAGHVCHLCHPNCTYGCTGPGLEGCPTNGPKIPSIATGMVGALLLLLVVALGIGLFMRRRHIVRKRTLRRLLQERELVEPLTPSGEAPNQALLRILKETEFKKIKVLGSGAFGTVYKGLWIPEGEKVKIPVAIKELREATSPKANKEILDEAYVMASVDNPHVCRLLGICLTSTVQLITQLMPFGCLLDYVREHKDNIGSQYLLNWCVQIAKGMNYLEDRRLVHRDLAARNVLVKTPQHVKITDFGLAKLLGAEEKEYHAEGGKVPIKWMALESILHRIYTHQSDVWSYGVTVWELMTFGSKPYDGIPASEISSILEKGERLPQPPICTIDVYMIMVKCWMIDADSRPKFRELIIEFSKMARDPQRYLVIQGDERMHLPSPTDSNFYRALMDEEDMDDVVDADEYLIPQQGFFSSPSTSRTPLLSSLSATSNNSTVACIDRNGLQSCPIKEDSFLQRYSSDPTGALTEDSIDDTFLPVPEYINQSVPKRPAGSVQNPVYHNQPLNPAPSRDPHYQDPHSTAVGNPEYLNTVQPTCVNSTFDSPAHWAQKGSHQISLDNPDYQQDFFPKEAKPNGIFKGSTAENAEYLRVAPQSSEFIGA
- test method notes: Activity for inhibiting EGFR (Table A), EGFR V3 (EGFR-Viii)
- Format: cell-based
- assay context: read-out: EGFR V3, potency code (IC50)
recorded metric: IC50

INSERT INTO measurements (molecule, system_tested, val) VALUES
  ('C=CC(=O)Nc1cc2c(Nc3ccc(OCc4ccccn4)c(Cl)c3)ncnc2cc1OCCN1CC2(CCO2)C1 [compound 52]', 'EGFR V3 (Homo sapiens, UniProt P00533, DELINS30-297G)', '20 to 30 nM'),
  ('C=CC(=O)Nc1cc2c(Nc3ccc(OCc4ccccn4)c(Cl)c3)ncnc2cc1OCCCN1CC2CC1CO2 (stereo not drawn) [compound 20]', 'EGFR V3 (Homo sapiens, UniProt P00533, DELINS30-297G)', '20 to 30 nM'),
  ('C=CC(=O)Nc1cc2c(Nc3ccc(OCc4ccccn4)c(Cl)c3)ncnc2cc1C#CC1CC2(C1)CN(C)C2 [compound 124]', 'EGFR V3 (Homo sapiens, UniProt P00533, DELINS30-297G)', '30 to 50 nM'),
  ('C=CC(=O)Nc1cc2c(Nc3ccc(OCc4cccc(C)n4)c(Cl)c3)ncnc2cc1OCCN1CC2CCC(C1)O2 [compound 132]', 'EGFR V3 (Homo sapiens, UniProt P00533, DELINS30-297G)', '300 to 500 nM'),
  ('C=CC(=O)Nc1cc2c(Nc3ccc(OCc4cccc(C)n4)c(Cl)c3)ncnc2cc1O[C@@H]1CCN(C)C1 [compound 140]', 'EGFR V3 (Homo sapiens, UniProt P00533, DELINS30-297G)', '100 to 200 nM'),
  ('C=CC(=O)Nc1cc2c(Nc3ccc(OCc4cccc(C)n4)c(Cl)c3)ncnc2cc1OCCN1CC(OC)C1 [compound 135]', 'EGFR V3 (Homo sapiens, UniProt P00533, DELINS30-297G)', '50 to 100 nM');
